protocol.text: Phase I study CXR1002-001: plasma pharmacokinetics (LC-MS/MS)
Type: in vivo, human
cond: human, plasma, oral, 100 mg, Patient 005 Dose 100 mg; 2 hr; read-out: Concentration

>  <smiles.str>
O=C(O)C(F)(F)C(F)(F)C(F)(F)C(F)(F)C(F)(F)C(F)(F)C(F)(F)F

>  <concentration at 2 h [µM]>
19.8

$$$$

* * *

protocol.text: Phase I study CXR1002-001: plasma pharmacokinetics (LC-MS/MS)
Type: in vivo, human
cond: human, plasma, oral, 450 mg, Patient 017 Dose 450 mg; 336 hr (Day 15); read-out: Concentration

>  <compound>
O=C(O)C(F)(F)C(F)(F)C(F)(F)C(F)(F)C(F)(F)C(F)(F)C(F)(F)F [CXR1002]

>  <readout.unit>
µM

>  <concentration at 336 h>
216

$$$$
